Recorded kon values for a group of binders are listed next.
STUDY SYSTEM: T1, human complement C3b protein (human, UniProt P01024 23-667; P01024 749-1663)
T1 construct: Purified plasma C3b (Complement Technology, Quidel); Depending on the assay it was captured by an anti-C3d antibody, coated, biotinylated or coupled to beads; also called human C3b; huC3b
T1 sequence (P01024 23-667 P314L, chain 1 of 2): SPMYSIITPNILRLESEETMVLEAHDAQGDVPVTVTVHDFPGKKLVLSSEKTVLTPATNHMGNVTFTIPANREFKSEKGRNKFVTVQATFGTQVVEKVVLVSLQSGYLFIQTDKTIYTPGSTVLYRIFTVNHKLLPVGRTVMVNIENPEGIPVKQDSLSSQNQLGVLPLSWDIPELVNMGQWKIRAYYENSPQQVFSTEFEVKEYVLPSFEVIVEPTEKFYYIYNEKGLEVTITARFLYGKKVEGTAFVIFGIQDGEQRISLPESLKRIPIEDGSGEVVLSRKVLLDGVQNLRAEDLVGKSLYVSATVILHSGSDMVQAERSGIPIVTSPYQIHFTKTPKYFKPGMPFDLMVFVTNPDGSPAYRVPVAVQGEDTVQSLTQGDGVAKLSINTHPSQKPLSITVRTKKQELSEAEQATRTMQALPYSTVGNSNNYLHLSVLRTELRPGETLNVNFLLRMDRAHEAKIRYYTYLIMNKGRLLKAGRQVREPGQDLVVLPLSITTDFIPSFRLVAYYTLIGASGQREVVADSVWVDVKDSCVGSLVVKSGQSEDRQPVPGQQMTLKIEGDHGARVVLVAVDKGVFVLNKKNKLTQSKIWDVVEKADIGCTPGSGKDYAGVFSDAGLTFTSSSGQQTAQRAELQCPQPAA
T1 sequence (P01024 749-1663, chain 2 of 2): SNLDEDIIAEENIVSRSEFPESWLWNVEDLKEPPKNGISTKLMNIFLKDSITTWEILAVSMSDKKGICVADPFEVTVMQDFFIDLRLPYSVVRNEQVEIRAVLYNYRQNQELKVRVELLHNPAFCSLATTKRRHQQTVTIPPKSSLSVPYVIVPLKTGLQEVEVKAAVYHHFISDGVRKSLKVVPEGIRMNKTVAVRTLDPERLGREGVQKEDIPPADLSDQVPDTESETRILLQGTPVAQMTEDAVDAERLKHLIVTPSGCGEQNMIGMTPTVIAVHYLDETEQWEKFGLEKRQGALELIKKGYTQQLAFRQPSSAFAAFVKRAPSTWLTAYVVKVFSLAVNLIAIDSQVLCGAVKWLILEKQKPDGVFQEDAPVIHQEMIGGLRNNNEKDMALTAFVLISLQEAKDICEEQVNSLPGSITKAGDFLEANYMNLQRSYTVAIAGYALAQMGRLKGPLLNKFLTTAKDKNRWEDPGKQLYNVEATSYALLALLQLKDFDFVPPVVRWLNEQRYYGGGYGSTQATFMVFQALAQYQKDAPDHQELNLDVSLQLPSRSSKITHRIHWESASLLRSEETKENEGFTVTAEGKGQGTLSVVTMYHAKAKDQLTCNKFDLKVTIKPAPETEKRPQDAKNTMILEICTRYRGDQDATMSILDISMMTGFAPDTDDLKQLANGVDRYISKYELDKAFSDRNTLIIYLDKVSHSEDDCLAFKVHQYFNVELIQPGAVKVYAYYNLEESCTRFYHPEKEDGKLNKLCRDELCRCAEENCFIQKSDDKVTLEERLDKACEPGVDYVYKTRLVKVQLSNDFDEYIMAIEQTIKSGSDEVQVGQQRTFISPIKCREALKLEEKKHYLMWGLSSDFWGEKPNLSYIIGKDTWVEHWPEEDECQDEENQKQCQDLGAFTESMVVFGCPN
EXPERIMENTAL PROTOCOL: SPR (Biacore T100), C3b captured by anti-C3d antibody, IgG as analyte, 1:1 model
The reply should be a number in M⁻¹ s⁻¹, with the unit left off.

Study these solved cases before continuing.
[
  {
    "BINDER": "MOR09609 IgG (antibody, V domains shown, Germlined human IgG1 with leucines 234 and 235 changed to alanines, kappa; also called antibody 9609) VH: EVQLVQSGAEVKKPGSSVKVSCKASGGTFSSYTFSWVRQAPGQGLEWMGNILPIFGDANYAQKFQGRVTITADESTSTAYMELSSLRSEDTAVYYCARNKGAFYYMSTYPSLDVWGQGTLVTVSS VL: DIQMTQSPSSLSASVGDRVTITCRASQNINYYLNWYQQKPGKAPKLLIYDAFSLQSGVPSRFSGSGSGTDFTLTISSLQPEDFATYYCQQSWSVPPFTFGQGTKVEIKR",
    "READOUT UNIT": "M⁻¹ s⁻¹",
    "TEST VALUE": "1.44e+06"
  },
  {
    "BINDER": "MOR09675 IgG (antibody, V domains shown, Germlined human IgG1 with leucines 234 and 235 changed to alanines, kappa; also called antibody 9675) VH: EVQLVQSGAEVKKPGASVKVSCKASGYTFTGYYINWVRQAPGQGLEWMGIISPNQGTTGYAQKFQGRVTMTRDTSISTAYMELSSLRSEDTAVYYCARGNYDHLDYWGQGTLVTVSS VL: DIQMTQSPSSLSASVGDRVTITCRASQGISNYLNWYQQKPGKAPKLLIYDASTLQSGVPSRFSGSGSGTDFTLTISSLQPEDFATYYCQQDWHTLPVTFGQGTKVEIKR",
    "READOUT UNIT": "M⁻¹ s⁻¹",
    "TEST VALUE": 353000
  }
]

Now let's try a different one.
## Task Looking for the measured kon of MOR09556 IgG (antibody, V domains shown, Germlined human IgG1 with leucines 234 and 235 changed to alanines, kappa; also called antibody 9556) VH: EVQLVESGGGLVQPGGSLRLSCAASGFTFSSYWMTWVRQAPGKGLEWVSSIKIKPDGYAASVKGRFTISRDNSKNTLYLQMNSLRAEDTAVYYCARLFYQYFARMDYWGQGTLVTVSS VL: DIQMTQSPSSLSASVGDRVTITCRASQDISNYLNWYQQKPGKAPKLLIYAASNLQSGVPSRFSGSGSGTDFTLTISSLQPEDFATYYCQQYDSYSPTFGQGTKVEIKR , can you help?
## Result 3.21e+06
